Test system: MDA-MB436 cells
Experimental protocol: Cell viability assay (Cell Titer Glo), MDA-MB436
Format: cell-based
Details: Homo sapiens, MDA-MB-436; Table 7b; 72 hour incubation

| Molecule | IC50 |
| --- | --- |
| Fc1cccc(Nc2cc(O[C@H]3CCCNC3)nn3c(C4CC4)cnc23)c1 [Compound I-1] | 1000 to 5000 nM |

###

System: HPAC pancreatic cancer cell line
Experimental protocol: Cell viability assay (Cell Titer Glo), HPAC
Type: cell-based
Details: Homo sapiens, HPAC; Table 7a; pancreatic cancer cell line, 72 hour incubation
Structures can show the parent of a compound that is named as a salt.

| Compound | Assay target | IC50 |
| --- | --- | --- |
| CC(C)c1cnc2c(NCc3ccc(F)cc3F)cc(SC3CCNCC3)nn12 [Compound 56, hydrochloride] | HPAC pancreatic cancer cell line | < 1000 nM |
| CC(C)c1cnc2c(N[C@@H](C)c3ccccc3)cc(SC3CCNCC3)nn12 | HPAC pancreatic cancer cell line | 1000 to 5000 nM |
| CC(C)c1cnc2c(NCc3ccccc3C(F)(F)F)cc(SC3CCNCC3)nn12 [Compound 53, hydrochloride] | HPAC pancreatic cancer cell line | < 1000 nM |
| CC(C)c1cnc2c(N[C@@H](C)c3ccccc3)nc(SC3CCNCC3)cn12 [Compound 32, dihydrochloride] | HPAC pancreatic cancer cell line | 1000 to 5000 nM |
| CC(C)c1cnc2c(Nc3cccc(F)c3)cc(NC3CCNCC3)nn12 [Compound 45, hydrochloride] | HPAC pancreatic cancer cell line | 1000 to 5000 nM |
| CC(C)c1cnc2c(NCc3ccccc3-n3cccn3)cc(SC3CCNCC3)nn12 [Compound 62, hydrochloride] | HPAC pancreatic cancer cell line | 1000 to 5000 nM |
| CC(C)c1cnc2c(N[C@@H](C)c3ccccc3)nc(SC3CCCNC3)cn12 (some centres unmarked) [Compound 34, hydrochloride] | HPAC pancreatic cancer cell line | 1000 to 5000 nM |
| COc1ccccc1CNc1cc(SC2CCNCC2F)nn2c(C(C)C)cnc12 (centres unmarked) [Compound 73, hydrochloride] | HPAC pancreatic cancer cell line | 1000 to 5000 nM |
| CC(C)c1cnc2c(NCc3ccccc3OC(F)(F)F)cc(NC[C@@H]3CNCCO3)nn12 [Compound 46, hydrochloride] | HPAC pancreatic cancer cell line | 1000 to 5000 nM |
| CC(C)c1cnc2c(NCc3ccccc3OC(F)(F)F)cc(OC3CCNCC3)nn12 [Compound 43, hydrochloride] | HPAC pancreatic cancer cell line | 1000 to 5000 nM |
| CC(C)c1cnc2c(NCc3ccccc3OC(F)(F)F)cc(SC3CCNCC3)nn12 | HPAC pancreatic cancer cell line | < 1000 nM |
| CC(C)c1cnc2c(NCc3ccccc3)nc(SC3CCCNC3)cn12 (centres unmarked) [Compound 26, formate salt] | HPAC pancreatic cancer cell line | 1000 to 5000 nM |
| CC(C)c1cnc2c(NCc3ccccc3)cc(S[C@@H]3CCCNC3)nn12 (single isomer, unassigned) [Compound 41, hydrochloride] | HPAC pancreatic cancer cell line | 1000 to 5000 nM |
| CC(C)c1cnc2c(NCc3ccccc3OC(F)F)cc(SC3CCNCC3)nn12 [Compound 66, hydrochloride] | HPAC pancreatic cancer cell line | < 1000 nM |
| CC(C)c1cnc2c(Nc3cccc(F)c3)cc(SC3CCNCC3)nn12 [Compound 44, hydrochloride] | HPAC pancreatic cancer cell line | < 1000 nM |
| CC(C)c1cnc2c(NCc3ccccc3C(F)(F)F)cc(SC3CCNCC3F)nn12 (centres unmarked) [Compound 77, hydrochloride] | HPAC pancreatic cancer cell line | 1000 to 5000 nM |
| CC(C)c1cnc2c(NCc3ccccc3N(C)C)cc(SC3CCNCC3)nn12 [Compound 64, hydrochloride] | HPAC pancreatic cancer cell line | 1000 to 5000 nM |
| Fc1cccc(Nc2cc(O[C@@H]3CCNC3)nn3c(C4CC4)cnc23)c1 | HPAC pancreatic cancer cell line | < 1000 nM |
| CC(C)c1cnc2c(NCc3ccccc3-n3cccn3)cc(SC3CCCNC3)nn12 (centres unmarked) [Compound 63, hydrochloride] | HPAC pancreatic cancer cell line | < 1000 nM |
| CC(C)c1cnc2c(Nc3cccc(F)c3)cc(O[C@H]3CCCNC3)nn12 [Compound 39, hydrochloride] | HPAC pancreatic cancer cell line | 1000 to 5000 nM |

###

Assay target: CDK7/CycH/MAT1 (Homo sapiens, UniProt P50613)
Sequence (P50613 whole entry): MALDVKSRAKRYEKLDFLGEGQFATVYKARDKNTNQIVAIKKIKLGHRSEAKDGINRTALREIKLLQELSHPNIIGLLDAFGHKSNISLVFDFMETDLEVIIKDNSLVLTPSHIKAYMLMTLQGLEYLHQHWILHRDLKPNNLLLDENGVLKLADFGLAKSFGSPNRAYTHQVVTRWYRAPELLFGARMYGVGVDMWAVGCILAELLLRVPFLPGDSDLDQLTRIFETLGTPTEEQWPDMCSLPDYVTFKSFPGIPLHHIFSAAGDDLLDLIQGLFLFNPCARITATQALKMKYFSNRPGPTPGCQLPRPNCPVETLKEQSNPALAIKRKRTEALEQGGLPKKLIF
Sequence (P51946 whole entry partner): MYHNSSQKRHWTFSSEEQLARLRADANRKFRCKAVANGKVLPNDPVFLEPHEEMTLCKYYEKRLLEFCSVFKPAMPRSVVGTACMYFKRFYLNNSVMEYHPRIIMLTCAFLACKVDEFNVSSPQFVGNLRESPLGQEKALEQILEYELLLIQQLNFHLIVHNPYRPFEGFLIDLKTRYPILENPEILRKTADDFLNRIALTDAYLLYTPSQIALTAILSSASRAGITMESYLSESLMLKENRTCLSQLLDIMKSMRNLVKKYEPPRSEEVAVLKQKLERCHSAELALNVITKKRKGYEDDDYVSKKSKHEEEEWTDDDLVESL
Sequence (P51948 whole entry partner): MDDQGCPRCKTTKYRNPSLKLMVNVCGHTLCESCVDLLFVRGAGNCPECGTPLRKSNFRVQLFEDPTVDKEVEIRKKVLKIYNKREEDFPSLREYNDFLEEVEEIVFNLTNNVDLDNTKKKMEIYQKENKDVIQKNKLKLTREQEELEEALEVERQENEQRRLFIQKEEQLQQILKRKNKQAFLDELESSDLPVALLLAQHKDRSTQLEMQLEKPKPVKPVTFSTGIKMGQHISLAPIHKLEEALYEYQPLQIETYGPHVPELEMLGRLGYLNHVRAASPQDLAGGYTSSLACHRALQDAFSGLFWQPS
Experimental protocol: Kinase Glo (ADP-Glo) biochemical assay, CDK7
Details: CDK7/CycH/MAT1 40 ng, ATP 1 μM, 60 minutes at RT, luminescence
Where a name gives a salt, the structure may show the parent alone.
Measured IC50, listed per entry.

| Compound | IC50 |
| --- | --- |
| CC(C)c1cnc2c(NCc3ccccc3-n3cccn3)nc(SC3CCCNC3)cn12 (stereo not shown) [Compound 68, hydrochloride] | < 100 nM |
| CC(C)c1cnc2c(NCc3ccc(F)cc3C(F)(F)F)cc(SC3CCNCC3)nn12 [Compound 80, hydrochloride] | 100 to 1000 nM |
| COc1ccccc1CNc1cc(SC2CCCNC2)nn2c(C(C)C)cnc12 (stereo not shown) [Compound 36, hydrochloride] | < 100 nM |
| CN1CCC[C@H](Oc2cc(NCc3ccccc3)c3ncc(C4CC4)n3n2)C1 [Compound 11] | 100 to 1000 nM |

###

Assay target: CDK7/CycH/MAT1 (Homo sapiens, UniProt P50613)
Experimental protocol: Kinase Glo (ADP-Glo) biochemical assay, CDK7
Details: CDK7/CycH/MAT1 40 ng, ATP 1 μM, 60 minutes at RT, luminescence
Counter-ions that a name gives are not always drawn.

| Compound | IC50 |
| --- | --- |
| CC(C)c1cnc2c(NCc3ccccc3OC(F)(F)F)cc(OC3CCNCC3(F)F)nn12 (stereo not drawn) [Compound 71, hydrochloride] | > 1000 nM |
| CN1CC[C@@H](Oc2cc(NCc3ccccc3)c3ncc(C4CC4)n3n2)C1 | 100 to 1000 nM |
| CN1CCC[C@H](Oc2cc(Nc3cccc(F)c3)c3ncc(C4CC4)n3n2)C1 | > 1000 nM |
| CC(C)c1cnc2c(Nc3cccc(OC(F)(F)F)c3)cc(SC3CCCNC3)nn12 (stereo not drawn) [Compound 58, hydrochloride] | 100 to 1000 nM |
| c1ccc(CNc2cc(NCC3CC4(CCNCC4)O3)nn3c(C4CC4)cnc23)cc1 (stereo not drawn) | 100 to 1000 nM |
| CC(C)c1cnc2c(NCc3ccccc3)nc(SC3CCCNC3)cn12 (stereo not drawn) [Compound 26, formate salt] | < 100 nM |
| CC(C)c1cnc2c(N[C@@H](C)c3ccccc3)nc(SC3CCNCC3)cn12 [Compound 32, dihydrochloride] | < 100 nM |
| CC(C)c1cnc2c(NCc3c(F)cccc3F)cc(SC3CCNCC3)nn12 [Compound 52, hydrochloride] | < 100 nM |
| COc1ccccc1CNc1cc(SC2CCNCC2)nn2c(C(C)C)cnc12 [Compound 35, hydrochloride] | < 100 nM |
